Attribution: patent US20230411006A1

Experiment: Tacrolimus concentrations and interdose AUC in ISBA requests of renal transplant patients
Settings: human, in vivo, oral, Median; TAD; Test (n = 1236); read-out: Through level C0

| COMPOUND_STRUCTURE_STRING | C0 [ng/mL] |
| --- | --- |
| C=CC[C@@H]1/C=C(\C)C[C@H](C)C[C@H](OC)[C@H]2O[C@@](O)(C(=O)C(=O)N3CCCC[C@H]3C(=O)O[C@H](/C(C)=C/[C@@H]3CC[C@@H](O)[C@H](OC)C3)[C@H](C)[C@@H](O)CC1=O)[C@H](C)C[C@@H]2OC | 15.4 |
